Reference for the values: PubChem BioAssay AID1399

Target: Signal transducer and activator of transcription 3 (Homo sapiens) (UniProt P40763)
Experiment: blockers of STAT3 signaling, concentration series – cell-based, dose response (AID 1399)
Conditions: human cell STAT3 reporter inhibition
Recorded pIC50 by entry
pIC50 here is simply -log10 of the concentration when that concentration is written in mol/L.

See these solved cases before continuing.
Cc1ccc(-n2nnnc2SCn2nnc3ccccc3c2=O)c(C)c1 :: 5.27
CC(=O)N1CCc2cc(S(=O)(=O)NC3CCCc4ccccc43)ccc21 (stereo not given) :: 5.29
CC(=O)Nc1ccc(-c2csc(Nc3ccc(Cl)cn3)n2)cc1 :: 5.20
CC(=O)c1ccc(N=Nc2ccc(C)cc2)cc1 :: 5.32

Task: Data request, read-out pIC50, for Cc1ccc(Cl)cc1N1CCN(C(=O)COc2ccc(S(=O)(=O)NC(C)C)cc2)CC1
Result: 5.11

Task: Next: COc1ccc(-c2nn(C)c(=O)c3ccccc23)cc1NC(=O)COc1ccc(C)cc1
Result: 5.30

Task: Can you handle CCc1c(C)c2ccc(OCC(=O)OC(C)C)c(C)c2oc1=O next?
Result: 5.21

Task: What about this molecule? COc1ccc(/C=N/NC(=S)Nc2cccc(C(=O)O)c2)cc1
Result: 5.34

Task: Try this molecule next: O=C(Nc1ccc(N2CCOCC2)nc1)c1ccc(C(F)(F)F)cc1
Result: 5.47

Task: Please do the same for Cc1cccc(C)c1NC(=O)N1CCN(c2nc3ccccc3s2)CC1 as well.
Result: 5.35

Task: Next up: COc1ccc(NS(=O)(=O)c2ccc(NC(=O)c3ccc(N(C)S(C)(=O)=O)cc3)cc2)cc1
Result: 5.40

====

# pIC50 annotations
Molecular target: Signal transducer and activator of transcription 3 (Homo sapiens) (UniProt P40763)
Assay: blockers of STAT3 signaling, concentration series – cell-based, dose response (AID 1399)
Conditions: human cell STAT3 reporter inhibition
Convention used: pIC50 is expressed as -log10 of the molar concentration.

CC1CCCCC1NS(=O)(=O)c1ccc(S(=O)(=O)NCc2ccncc2)cc1 (stereo not drawn) :: 5.48

Task: pIC50 of CCN(CC)c1ccc(NC(=O)CN2C(=O)CSc3ncccc32)c(C)c1 on Signal transducer and activator of transcription 3 (Homo sapiens) (UniProt P40763)?
Result: 5.42

Task: Next molecule: O=C(Oc1cccc(Nc2ncnc3ccccc23)c1)c1ccccc1Cl
Result: 5.35

====

Target: Signal transducer and activator of transcription 3 (Homo sapiens)
Test: blockers of STAT3 signaling, concentration series – cell-based, dose response (AID 1399)
Settings: human cell STAT3 reporter inhibition
Endpoint name: pIC50
Would you please state pIC50, meaning minus log10 of the concentration in mol/L, as a bare number?

O=C(COC(=O)c1n[nH]c2ccccc12)Nc1ccc(S(=O)(=O)N2CCCC2)cc1 :: 5.35
Cc1nc2sccn2c1-c1csc(NCc2ccccc2)n1 :: 5.36
COc1ccc(CC(=O)Nc2cccc(-c3nnc(-c4cccc(C)c4)o3)c2)cc1OC :: 5.48
O=c1c2c(nc3n1CCCCC3)sc1c(O)cccc12 :: 5.13
Cc1nc2ccccc2cc1OCc1ccccc1 :: 5.32
O=C(Nc1nccs1)c1ccc(S(=O)(=O)NCC2CCCCC2)cc1 :: 5.52
COc1cc(OC)cc(C(=O)Nc2nnc(NC(=S)Nc3ccccc3)s2)c1 :: 5.41
CC(=O)c1cn(CC(=O)Nc2ccccc2C)c2ccccc12 :: 5.29

Task: Find pIC50 (Signal transducer and activator of transcription 3 (Homo sapiens)) for the entry Cc1cc(OCC(=O)Nc2ccncc2)cc(C)c1Br
Result: 5.50

Task: Moving on to the next molecule: C[C@H]1O[C@@H](O[C@H]2[C@@H](O)C[C@H](O[C@H]3[C@@H](O)C[C@H](O[C@H]4CC[C@@]5(C)[C@H](CC[C@@H]6[C@@H]5C[C@@H](O)[C@]5(C)[C@@H](C7=CC(=O)OC7)CC[C@]65O)C4)O[C@@H]3C)O[C@@H]2C)C[C@H](O)[C@@H]1O
Result: 5.73

Task: Do the same for Cc1cc(NC(=O)c2cc(-c3cccs3)on2)nn1Cc1ccc(Cl)cc1 please
Result: 5.26

====

Target: Signal transducer and activator of transcription 3 (Homo sapiens) (UniProt P40763)
Experiment: blockers of STAT3 signaling, concentration series – cell-based, dose response (AID 1399)
Settings: human cell STAT3 reporter inhibition
Recorded pIC50 for the following compounds
Scale note: pIC50 = -log10(concentration in M).

// known answers, use as guide
CNc1ccccc1C(C)(C)c1cc(-c2ccc(F)cc2)no1 :: 5.27
NNC(=O)c1cccc(COc2ccccc2Br)c1 :: 5.49

Please examine the following record next.
Task: Entry CCCCOc1ccc(C(=O)Nc2ccncc2)cc1 has what pIC50?
Result: 5.68

====

Biological target: Signal transducer and activator of transcription 3 (Homo sapiens) (UniProt P40763)
Assay: blockers of STAT3 signaling, concentration series – cell-based, dose response (AID 1399)
Settings: human cell STAT3 reporter inhibition
Endpoint name: pIC50
// pIC50: -log10(molar conc.)

Recorded pIC50, per entry:
CCOC(=O)C1=C(Cc2ccc(C)cc2)C(=O)c2ccccc2C1=O :: 5.15
CC(C)Cn1c(N)c(C(=O)CSc2ccccc2)c(=O)n(C)c1=O :: 5.25
O=C1C2C3c4ccccc4C(c4ccccc43)C2c2nc3ccccc3n21 (stereo not given) :: 5.49

Task: What pIC50 value was documented for this compound, O=C(Nc1ccc(Oc2ccccc2)cc1)C1CCN(c2c3c(nc4ncnn24)CCC3)CC1 ?
Result: 5.19

Task: Follow-up entry: NC(=O)C1CCN(c2ccc(S(=O)(=O)N3CCC(Cc4ccccc4)CC3)cn2)CC1
Result: 5.31
